protocol: qHTS for Inhibitors of human tyrosyl-DNA phosphodiesterase 1 (TDP1): qHTS in cells in absence of CPT; also: nearly all actives have a fitted effect of over 55% in size
condition_set: DT40 Tdp1-/- hTDP1 cells, no CPT, ATP luminescence, 48 h
About 64,000 (15%) of roughly 420,000 compounds were called active. Another 27% or so got no clear call; they are omitted. Calls follow the shape of the dose curve; as a rule, active = well fitted inhibition curve with a large enough effect; inconclusive = small, poorly fitted or top-dose-only effect; inactive = flat fitted curve, though single readings scatter. The list is a sample of the results.
Form entry, call: pick from Yes for active, No for inactive

- compound: "Cc1ccc(C)c(NC(=S)NNC(=O)c2csc(C)c2)c1"
  label_class: "Yes"
- compound: "CCCCNC(=O)N(O)C1N(/N=C/c2ccccc2O)C(=S)SC1(C)C (configuration not stated)"
  label_class: "No"
- compound: "CCOc1ncccc1C(=O)NNC(=O)c1cccc(S(=O)(=O)Nc2ccccc2OC)c1"
  label_class: "No"
- compound: "O=C(CN1CCC(NC(=O)C2CC2)CC1)Nc1ccccc1[N+](=O)[O-]"
  label_class: "No"

# lookup: test call for `CC(=O)NS(=O)(=O)c1ccc2c(c1)Cc1cc(S(=O)(=O)NC(C)=O)ccc1-2`
No

# lookup: test call for `COc1ccc(N2CCN(C(=O)c3ccccc3NC(=O)C3=C(C)OCCS3)CC2)cc1`
No

# lookup: test call for `COC(=O)c1ccc(CSc2ccc(S(=O)(=O)N3CCCCC3)cn2)cc1`
No

# lookup: test call for `Cc1ccc(C)c(NC(=O)CCC(=O)NNC(=O)c2cccs2)c1`
No

# lookup: test call for `CSc1ccccc1NC(=O)CN(C)CC(=O)Nc1cccc(Br)c1`
Yes

# lookup: test call for `COc1ccccc1/C=N\Nc1cc(C)nc(-n2nc(C)cc2C)n1`
Yes

# lookup: test call for `CSc1ccccc1NC(=O)Cc1ccc(Br)cc1`
No

# lookup: test call for `Cc1noc(COc2ccccc2OCc2onc(C)c2Cl)c1Cl`
No

# lookup: test call for `COc1cccc(/C=N/Nc2ccc(S(=O)(=O)Nc3ccccc3C(=O)O)cc2[N+](=O)[O-])c1O`
No

# lookup: test call for `O=C(c1ccc(Cl)cc1)c1cnc(Nc2ccccc2)s1`
No

# lookup: test call for `CC(C)Cn1c(CCC(=O)O)ccc1-c1cccs1`
No

# lookup: test call for `CCOC(=O)CNC(=O)CSc1ccc2nnc(-c3cccnc3)n2n1`
No

# lookup: test call for `O=C(NC(=S)Nc1ccccc1C(=O)O)c1ccc(-c2ccc(Br)cc2)o1`
No
